Recorded values, source patent US20040082635A1.

Target: HCV polymerase (Hepatitis C virus genotype 1b, UniProt P26663)
Construct: a region encoding NS5B (591 amino acids; J Virol 1991 Mar, 65(3), 1105-13) was amplified by PCR; 6 His (N); made in house; host or cells: Escherichia coli
Sequence (P26663 2420-3010): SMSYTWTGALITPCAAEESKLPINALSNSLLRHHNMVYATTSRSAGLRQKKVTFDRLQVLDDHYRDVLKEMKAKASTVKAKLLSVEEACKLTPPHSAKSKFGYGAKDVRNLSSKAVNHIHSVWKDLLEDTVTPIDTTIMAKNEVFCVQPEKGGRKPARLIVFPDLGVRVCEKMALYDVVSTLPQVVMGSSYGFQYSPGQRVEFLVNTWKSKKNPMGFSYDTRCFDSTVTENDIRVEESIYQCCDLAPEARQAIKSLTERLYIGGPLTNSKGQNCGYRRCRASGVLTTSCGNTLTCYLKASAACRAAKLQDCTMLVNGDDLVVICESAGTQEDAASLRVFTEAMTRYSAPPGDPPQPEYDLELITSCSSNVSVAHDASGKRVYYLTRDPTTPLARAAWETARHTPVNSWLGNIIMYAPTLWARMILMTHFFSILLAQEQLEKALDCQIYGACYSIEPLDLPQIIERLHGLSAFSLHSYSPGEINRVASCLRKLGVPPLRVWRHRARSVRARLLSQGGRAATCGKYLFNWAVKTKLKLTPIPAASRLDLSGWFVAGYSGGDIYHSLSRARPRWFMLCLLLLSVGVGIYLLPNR
Assay: biochemical
Settings: read-out: HCV polymerase inhibitory activity IC50
Structures can show the parent of a compound that is named as a salt.
recorded metric: IC50 (nM)
Unit nM implied. Number only.

Q: Provide only the value of recorded IC50 for Cc1nc(-c2ccc(-c3ccc(Cl)cc3)c(COc3ccc(-c4nc5cc(C(=O)O)ccc5n4C4CCCCC4)cc3)c2)cs1
A: 22

Q: Provide only the value of recorded IC50 for O=C(O)c1ccc2c(c1)nc(-c1ccc(OCc3cc(O)ccc3-c3ccc(Cl)cc3)cc1)n2C1CCCCC1 [Example 329, hydrochloride]
A: 47

Q: Provide only the value of recorded IC50 for O=C(O)c1ccc2c(c1)nc(-c1ccc(OCc3ccc(-c4nnn[nH]4)cc3-c3ccc(Cl)cc3)cc1)n2C1CCCCC1
A: 15

Q: Provide only the value of recorded IC50 for O=C(O)c1ccc(-c2ncccc2COc2ccc(-c3nc4cc(C(=O)O)ccc4n3C3CCCCC3)cc2)cc1
A: 35

Q: Provide only the value of recorded IC50 for CCOC(=O)c1ccc(-c2ccc(Cl)cc2)c(COc2ccc(-c3nc4cc(C(=O)O)ccc4n3C3CCCCC3)cc2)c1
A: 22

Q: Provide only the value of recorded IC50 for CC(C)NC(=O)c1ccc(-c2ccc(F)c(Cl)c2)c(COc2ccc(-c3nc4cc(C(=O)O)ccc4n3C3CCCCC3)c(F)c2)c1 [Example 399, hydrochloride]
A: 32

Q: Provide only the value of recorded IC50 for O=C(O)c1ccc2c(c1)nc(-c1ccc(OC[C@@H]3CCCN3S(=O)(=O)c3ccccc3)cc1)n2C1CCCCC1
A: 130

###

Provide the reported IC50 of each item.
Target: HCV polymerase (Hepatitis C virus genotype 1b)
Construct: a region encoding NS5B (591 amino acids; J Virol 1991 Mar, 65(3), 1105-13) was amplified by PCR; 6 His (N); made in house; host or cells: Escherichia coli
Test: biochemical
Conditions: read-out: HCV polymerase inhibitory activity IC50
Counter-ions that a name gives are not always drawn.
Unit µM implied. Number only.

Q: Provide only the value of recorded IC50 for O=C(O)c1ccc2c(c1)nc(-c1ccc(OC[C@@H]3CCCN3c3ccc([N+](=O)[O-])cc3)cc1)n2C1CCCCC1
A: 0.063

Q: Provide only the value of recorded IC50 for CN1CCC(COc2cccc(Oc3ccc(-c4nc5cc(C(=O)O)ccc5n4C4CCCCC4)cc3)c2)CC1
A: 0.059

Q: Provide only the value of recorded IC50 for Cc1nc(-c2ccc(C(=O)O)cc2)c(COc2ccc(-c3nc4cc(C(=O)O)ccc4n3C3CCCCC3)cc2)s1 [Example 255, hydrochloride]
A: 0.038

Q: Provide only the value of recorded IC50 for O=C(O)c1ccc2c(c1)nc(-c1ccc(OCc3cc(N4CCCC4=O)ccc3-c3ccc(Cl)cc3)cc1F)n2C1CCSCC1 [Example 419, hydrochloride]
A: 0.021

Q: Provide only the value of recorded IC50 for CN(C)C(=O)c1ccc(-c2ccncc2)c(COc2ccc(-c3nc4cc(C(=O)O)ccc4n3C3CCCCC3)cc2)c1 [Example 320, dihydrochloride]
A: 0.036

Q: Provide only the value of recorded IC50 for CC(C)=CCCOc1cccc(Oc2ccc(-c3nc4cc(C(=O)O)ccc4n3C3CCCCC3)cc2)c1
A: 0.15

Q: Provide only the value of recorded IC50 for O=C(O)c1ccc2c(c1)nc(-c1ccc(OCc3cc(Cl)ccc3-c3cc(Cl)cc(Cl)c3)cc1)n2C1CCCCC1
A: 0.31

Q: Provide only the value of recorded IC50 for O=C(O)c1ccc2c(c1)nc(-c1ccc(OCC(c3ccccc3)c3ccccc3)cc1)n2C1CCCCC1
A: 0.12

Q: Provide only the value of recorded IC50 for O=C(O)c1ccc2c(c1)nc(-c1ccc(Oc3ccc(OCc4ccccc4)cc3)cc1C(F)(F)F)n2C1CCCCC1
A: 0.24

Q: Provide only the value of recorded IC50 for O=C(O)c1ccc2c(c1)nc(-c1ccc(Oc3cccc(-c4cccc(Cl)c4)c3)cc1)n2C1CCCCC1
A: 0.033

Q: Provide only the value of recorded IC50 for CN(C)C(=O)c1ccc(-c2cccnc2)c(COc2ccc(-c3nc4cc(C(=O)O)ccc4n3C3CCCCC3)cc2)c1 [Example 272, dihydrochloride]
A: 0.066

Q: Provide only the value of recorded IC50 for O=C(O)c1ccc2c(c1)nc(-c1ccc(OCc3cc(C(=O)NCc4cccnc4)ccc3-c3ccc(Cl)cc3)cc1)n2C1CCCCC1 [Example 322, dihydrochloride]
A: 0.016

Q: Provide only the value of recorded IC50 for O=C(O)c1ccc2c(c1)nc(-c1ccc(OCc3cc(C(=O)N4CCCC4)ccc3-c3ccc(Cl)cc3)cc1F)n2C1CCCCC1
A: 0.012

Q: Provide only the value of recorded IC50 for O=C(O)c1ccc2c(c1)nc(-c1ccc(OC(c3ccc(F)cc3)c3cccc(C(=O)N4CCC(O)CC4)c3)cc1F)n2C1CCCCC1 (stereo not shown) [Example 443, hydrochloride]
A: 0.03

Q: Provide only the value of recorded IC50 for CC(C)=CCOc1cccc(Oc2ccc(-c3nc4cc(C(=O)O)ccc4n3C3CCCCC3)cc2)c1
A: 0.071

Q: Provide only the value of recorded IC50 for O=C(O)c1ccc2c(c1)nc(-c1ccc(OCc3cc(OCCCO)ccc3-c3ccc(Cl)cc3)cc1)n2C1CCCCC1
A: 0.016

Q: Provide only the value of recorded IC50 for O=C(O)c1ccc2c(c1)nc(-c1ccc(OCc3ccccc3)cc1)n2C1CCCCCC1
A: 0.51

Q: Provide only the value of recorded IC50 for NC(=O)COCc1nc(-c2ccc(F)cc2)c(COc2ccc(-c3nc4cc(C(=O)O)ccc4n3C3CCCCC3)cc2)s1 [Example 428, hydrochloride]
A: 0.026

Q: Provide only the value of recorded IC50 for O=C(O)c1ccc2c(c1)nc(-c1ccc(OCCOc3ccccc3)cc1)n2C1CCCCC1
A: 0.25

Q: Provide only the value of recorded IC50 for O=C(O)c1ccc2c(c1)nc(-c1ccc(OCc3ccccc3-c3ccccc3)cc1)n2C1CCCCC1
A: 0.092

Q: Provide only the value of recorded IC50 for NC(=O)c1ccc(COc2ccc(-c3nc4cc(C(=O)O)ccc4n3C3CCCCC3)cc2)c(-c2ccc(Cl)cc2)c1
A: 0.014

Q: Provide only the value of recorded IC50 for O=C(O)c1ccc2c(c1)nc(-c1ccc(Oc3cccc(OCc4ccc(Cl)cc4)c3)cc1)n2C1CCCCC1
A: 0.14
